// reported protein stability index per item
B1: SOAT1 (parent)
chain: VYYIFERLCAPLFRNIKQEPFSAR

Variants of: B1
TEST SUMMARY: protein stability index of a GFP-peptide fusion (GPS, HEK-293T) (PSI 1-6); higher = more stable;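 also: lentivirally expressed fusions sorted by FACS into six bins by GFP to DsRed ratio, PSI derived from sequencing read proportions per bin multiplied by bin number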
TEST CONTEXT: c terminus: a fixed tail appended
Kindly provide the number alone.

MUTANT ID | protein stability index
A23W | 3.89
F5H | 1.56
L8C | 1.64
I4P | 1.64
F13N | 3.57

Fill blank: measured protein stability index of the variant L12K is ____.
2.57

Okay, and S22Q ?
1.46

Okay, and V1G ?
1.7

Okay, and R7D ?
4.14

Provenance of the data: the supplement of paper PMC10567573
